# Tested on: Wistar rats
# experiment: Antiphlogistic activity, carrageenin paw edema
# Format: in vivo, rat (Wistar)
# conditions: Rattus norvegicus, po, 3 h; Table 6, rats
Would you kindly list ED30 for each of these molecules?
Numbers only, in mg/kg.

In the examples that follow, each entry is paired with its recorded ED30.
>>> quantitativereadout("Cn1c(=O)c2c(ncn2CCCCCN2CCN(c3cccc(C(F)(F)F)c3)CC2)n(C)c1=O [Compound F]")
25
>>> quantitativereadout("Cn1c(=O)c2c(ncn2CCCCN2CCN(c3ccc(Cl)cc3)CC2)n(C)c1=O [Compound D]")
25
>>> quantitativereadout("Cn1c(=O)c2c(ncn2CCCCN2CCN(c3ccc(F)cc3)CC2)n(C)c1=O [Compound A]")
10

// next item, ED30 requested
Lab book: ED30 of Cn1c(=O)c2c(ncn2CCCCCN2CCN(c3ccc(Cl)cc3)CC2)n(C)c1=O [Compound B] noted as 50

----------
Provide the reported LD50 at 168 h of each item.
# experiment: Acute toxicity in rats
# Set-up: species or system rat (SD male)
# conditions: rat, in vivo, po; Table 2, rats
Answers are plain numbers, in mg/kg.

Need LD50 at 168 h for each of these compounds.
1. Cc1ccc(N2CCN(CCCn3cnc4c3c(=O)n(C)c(=O)n4C)CC2)cc1C [Compound C]
2. Cn1c(=O)c2c(ncn2CCCCN2CCN(c3ccc(Cl)cc3)CC2)n(C)c1=O [Compound D]

OUT:
1: 770; 2: 505

// field: LD50 at 168 h; key: Cn1c(=O)c2c(ncn2CCCCCN2CCN(c3cccc(C(F)(F)F)c3)CC2)n(C)c1=O [Compound F] ; value = 660

----------
# experiment: Acute toxicity in mice
# Set-up: species or system mouse (ddy male)
# conditions: mouse, in vivo, po; Table 1, mice
measuredAttribute: LD50 at 72 h (mg/kg)
One number for each entry, in mg/kg.

Consider the following illustrative entries.
>>> quantitativereadout("Cn1c(=O)c2c(ncn2CCCCN2CCN(c3ccc(F)cc3)CC2)n(C)c1=O")
344
>>> quantitativereadout("Cn1c(=O)c2c(ncn2CCCCN2CCN(c3ccc(Cl)cc3)CC2)n(C)c1=O")
575

For the next question, use this compound.
Query Cn1c(=O)c2c(ncn2CCCCCN2CCN(c3ccc(Cl)cc3)CC2)n(C)c1=O yields LD50 at 72 h of 704
